Measured values drawn from paper PMC5923120 for this set.

- experimental.protocol: in vitro
- assay.setup: human, microsomes, % remaining at 30 min, without NADPH
quantity.name: remaining at 0.5 h, 2 μM (%)
Give the value in % but do not write % after it.

O=C(N/N=C/c1cc(Br)cc(Br)c1O)c1ccc(Br)cc1 [D13]	86.5

// moving on: another record for remaining at 0.5 h, 2 μM
IN: What remaining at 0.5 h, 2 μM value was documented for this compound, Cc1ccccc1C(=O)N/N=C/c1cc(Br)ccc1O [BHBM] ?
OUT: 88.5
